Just for reference, patent US11339165B2 is where these values come from.

- Tested on: rgRSV224 virus
- ASSAY_METHOD_TEXT: Antiviral activity: rgRSV224 (GFP) replication in HeLa cells
- Type: cell-based, respiratory syncytial virus (RSV)
- CONDITION_INFO: human respiratory syncytial virus, HeLa, 72 h, read-out: RSV HELA EC50 (μM), rgRSV224 virus (MOI=1), HeLa cells, GFP expression three days post-virus exposure
PARAMETER: EC50 (µM)
Give just the number in µM; leave the unit off.

- C[C@@H]1c2ccccc2CCN1C(=O)c1cc(C2CC2)n2nc(-c3ccc(N4CC[C@H](C(=O)NC#N)C4)cc3F)cc2n1 [Compound 39]: 0.291
- C[C@@H]1c2ccccc2CCN1C(=O)c1cc(C2CC2)n2nc(-c3ccc(N4C[C@H](O)[C@H](O)[C@H]4CO)cc3F)cc2n1 [Compound 98]: 0.039
- C[C@@H]1c2ccccc2CCN1C(=O)c1cc(-c2ccncc2)n2nc(-c3ccc(N4CC[C@H](C(N)=O)C4)cc3F)cc2n1 [Compound 63]: 0.011
- C[C@@H]1c2ccccc2CCN1C(=O)c1cc(C2CC2)n2nc(-c3ccc(N4C[C@H](O)C(F)(F)C4)cc3F)cc2n1 [Compound 97]: 0.053
- C[C@@H]1c2ccccc2CCN1C(=O)c1cc(C2CC2)n2nc(-c3cc(F)c(N4CC[C@H](C(N)=O)C4)cc3F)cc2n1 [Compound 55]: 0.016

Now for the compound whose EC50 we want.
input: I'm curious: which EC50 was measured for C[C@@H]1c2ccccc2CCN1C(=O)c1cc(C2CC2)n2nc(-c3ccc(N4CCC(CC(N)=O)CC4)cc3F)cc2n1 [Compound 70] tested on rgRSV224 virus?
output: 0.104
